molecular target: HLA-A*02:03; assay: IEDB peptide-MHC binding, cellular MHC/competitive/fluorescence; bounds were set here for any values at or beyond the usual limits of such assays; conditions: source organism: Mammarenavirus lassaense
result_type: IC50 (µM)

- CNYSKYWYL: 7.13

* * *

molecular target: HLA-A*68:02; assay: IEDB peptide-MHC binding, cellular MHC/competitive/fluorescence; bounds were set here for any values at or beyond the usual limits of such assays; conditions: source organism: Influenza A virus
pIC50: −log10 of the molar value.
result_type: pIC50

- RLNKRSYLI: 4.37
- QTRSKAGLLV: 4.29
- NALLKHRFEII: 4.91
- TTQIIKLLPFA: 5.09
- AAFEDLRL: 4.22
- AAFEDLRLL: 4.74
- SAFDERRNRYL: 5.23
- FLKVPAQNA: 4.54
- AAGAAVKGV: 4.58
- SAAFEDLRL: 4.57
- SLCPIRGWAI: 4.79
- SMGVYQILA: 4.77
- CAAMDDFQL: 5.30
- SAFDERRNKYL: 4.85
- GILHLILWIL: 5.10
- VLFQNWGI: 4.26
- TVDHMAII: 4.40
- AIRGQYSGFV: 4.73
- LLLIVQALR: 4.37
- PACVYGLA: 4.28
- ILGFVFTLTV: 5.30
- RLIDFLKDV: 4.50
- RAEIIRMMEGA: 4.26
- AVPNGTLV: 4.37
- TVLGVSIL: 4.80
- YLIRALTL: 5.02
- ATKRIRMA: 4.23
- QARQMVQAMRA: 4.70
- AAMDDFQLI: 4.24
- NLYNIRNL: 4.81
- NLPFDKTTIMA: 4.96
- AIMDKNIML: 4.89
- NVKDYSIV: 4.95
- QAIMDKNIIL: 5.05
- NVRGSGMRILV: 4.95
- ALANTIEV: 4.23
- RMGAVTTEV: 4.57
- ATALANTI: 4.39
- RASAGQISV: 5.07
- FVETLARSI: 4.93
- LLLVVQALR: 4.22
- RAMAWTVVNSI: 5.12
- VATTHSWI: 4.25
- GLISLILQI: 4.91
- IAYERMCNIL: 4.61
- ATVSADPL: 4.37
- TVPSERGL: 4.19

* * *

molecular target: HLA-A*02:01; assay: IEDB peptide-MHC binding, purified MHC/competitive/radioactivity; bounds were set here for any values at or beyond the usual limits of such assays; conditions: source organism: Vaccinia virus WR
Rule: measured IC50 below 500 nM gets yes; anything equal to or greater than 500 nM gets no.

* LVVDNGELM | no
* LILSNKLLYA | yes
* SLEATYHII | no
* MLMFIFTGI | yes
* YVLFTVMTYV | yes
* KQYDSTDFKM | yes
* ALINLVQYRI | yes
* ALLSRFFNM | yes
* MTFGDIPLV | yes
* FIADIGIGV | yes
* IMRVMANNV | yes
* KIIETYLGRV | yes
* KLFKRERDAI | no
* QLYLTVSFI | no
* VLAIDFGNGA | no
* ALWIPDLFM | yes
* GVIEYAKSI | no
* NLNIVRDML | no
* FQESFYEDIA | no
* YIFAALGGSV | yes
* QMTSTFIML | yes
* KMEYNLYAEL | yes
* DMLKLFTHDI | no
* ALVSDCAST | yes
* TLPELNLSL | yes
* NIIDWQFAI | yes
* IMFTCMDPL | yes
* IISYIILFI | yes
* YMDLSYHGVT | yes
* TMLSIILVII | yes
* NLPEDIKRV | yes
* MLYFAGGLSV | yes
* IVLSNTSTAV | no
* TQVKELGIAI | no
* SLALKNSQA | no
* VLVDNVDFAT | yes
* YQSFLFWFL | yes
* KIIAVFDSKL | no
* FVMCLEAKT | no
* RQIFIHYSV | yes
* FLSRLVLYA | yes
* TIKESLLKET | yes
* VMYAFTTPL | yes

* * *

target: HLA-A*02:02; assay: IEDB peptide-MHC binding, purified MHC/competitive/radioactivity; bounds were set here for any values at or beyond the usual limits of such assays; conditions: source organism: Influenza A virus
Reported IC50 values for a set of sequences
result_type: IC50 (nM)

- AVATTHSWI: 440
- TVSSFQDIL: 457
- MQIAILVTTV: 40
- SCLENFRAYV: 90
- AAFEDLRLL: 4450
- LLLIVQALR: 1490
- ATAGLTHMMI: 636
- SAFDERRNRYL: 1280
- FNMLSTVLGV: 16
- LVASSGTLEFI: 153
- GILHLILWIL: 4520
- RTLFQQMRDVL: 1890
- VLFQNWGI: 1560
- SMGVYQILA: 518
- IVSSYVCSGL: 161
- AMDSNTLEL: 254
- FNPMIVELA: 937
- RAMAWTVVNSI: 74
- AIMDKNIML: 153
- SCINRCFYV: 808
- TTQIIKLLPFA: 2190
- TSFFYRYGFV: 1100
- ALANTIEV: 162
- GLISLILQI: 27
- MLLRSAIGQV: 1390
- RTFFLTQGA: 2010
- SSLENFRAYV: 204
- YNAELLVLL: 118
- RLIDFLKDV: 16
- RLIQNSITI: 137

* * *

molecular target: HLA-A*02:01; test: IEDB peptide-MHC binding, cellular MHC/competitive/fluorescence; bounds were set here for any values at or beyond the usual limits of such assays; settings: source organism: Vaccinia virus WR
Threshold 30 µM: IC50 strictly smaller gives 1, otherwise 0.

- IQKDINITHT: 0
- TTNNLLEQL: 0
- RVNDLNRMPT: 1
- IVQSVLRDI: 0
- NMNYSDDYM: 1
- TLLNETAKVI: 1
- NTLIQYRQQL: 0
- YAVLSEYET: 0
- ELNLSKFMM: 1
- ETQSGALEVL: 1
- SIPKETNELT: 0
- CTNDIYCDEI: 1
- YIQETIRSDT: 0
- ELIAFSSGT: 1
- LVVSTKGDV: 1
- SLKRFTHTT: 1
- SATESDAIRT: 0
- EALYYVHSL: 1
- IVLPNKVRI: 0
- ITRLEVIGLT: 1
- VTSPLTGNNT: 0
- ELENKKVEYV: 0
- SQSERDNYIT: 0
- NQLDSSNKSM: 1
- NIDSIMSMM: 1
- SMTSDSKSI: 0
- SQAKKPEVRI: 0
- IIDFLEGALI: 0
- GATLYRFKHI: 0
- TINALVYFST: 1
- TMSTPMTEYI: 1
- STFNMWREI: 1
- PIIFGESSI: 0
- LINLVQYRI: 1
- EVFINDNGI: 0
- STSNVITDQT: 0
- LVAEHRFENM: 0
- ELVMDKNHAI: 0
- YIENTNQGNI: 0
- IASGQRCHFI: 1
- EIARIENEM: 0

* * *

molecular target: HLA-A*68:02; experiment: IEDB peptide-MHC binding, purified MHC/competitive/radioactivity; bounds were set here for any values at or beyond the usual limits of such assays; details: source organism: Vaccinia virus WR
result_type: log10 IC50 (log10 of the value in nM)

* ILATLNTLIT | 3.27
* ETNIGCAVNT | 1.34
* QLMYDIINSV | 2.22
* RAGYSIVEL | 3.08
* YAVLSEYET | 2.39
* LTTVFIKYV | 2.52
* EIRGVLPEET | 3.66
* TIKESLLKET | 2.47
* ITRLEVIGL | 3.65
* STVDVRNIVT | 2.68
* SVKNLILNFL | 2.11
* FVDTMSIYIA | 2.36
* SLSNLDFRL | 1.36
* TAIRAGYSIV | 3.02
* QTVDFTDCRT | 1.52
* YTFAISYCRA | 0.60
* MTSTRTIIL | 2.71
* DTSPTKRCRL | 3.30
* NIFMTLVPV | 0.41
* MIIGEPIIVA | 2.45
* IICEDAMYYA | 2.87
* EATFIDVHI | -0.89
* SIAMLKSKNI | 3.32
* GTSVIRSNI | 1.98
* HTNHSDISM | 1.41
* GLIVILFIM | 3.14
* NLETYTRPEI | 3.32
* KAKQLCYCPA | 3.39
* TINVNSLAL | 3.18
* YTRPEIDVL | 2.72
* KVEKYLPEV | 3.18
* FLTGTFVTA | 2.95
* CVSNLDISSV | 3.01
* AIFNNRNLA | 2.57
* IAGGVCYYL | 2.60
* YVSSSYKDI | 3.42
* RVKQWVMDT | 2.78
* GVCYYLLMHL | 1.90
* EIARIENEM | 0.92
* CTMERTNDLT | 0.94
* YIAGLKIEEI | 2.83
* QIMECSRML | 3.15
* CTINVNSLA | 1.11
* FTSYKRFVT | 2.66
